test.description: Antioxidant activity assessed as free radical scavenging activity by lipid peroxidation assay
Assay type: functional
endpoint.label: pEC50
Field pEC50 (float): negative decimal logarithm of the concentration in molar.

For record COc1ccc2c(c1)OC(c1ccc(Cl)cc1)C(c1ccccc1)C2=O (centres undefined) the listed pEC50 is 3.78

So for CCOc1ccc2c(c1)OC(c1ccccc1)C(c1ccccc1)C2=O (centres undefined) , the logged pEC50 turned out to be 3.06

Further cases:
pEC50 recorded for this molecule, COc1ccc2c(c1)OC(c1cccc([N+](=O)[O-])c1)C(c1ccccc1)C2=O (centres undefined) , is 3.89

###

test.description: Cytotoxicity against human PBMC cells after 5 days by MTT assay
Assay type: cell-based
This section presents compounds with their documented CC50 at 120 h values.

As a guide, the following entries are already answered.
Per the records, this compound ( CCOc1ccc2c(c1)OC(c1ccccc1)C(c1ccccc1)C2=O (centres undefined) ) has CC50 at 120 h equal to > 2500 µM

Data point: COc1ccc2c(c1)OC(c1cccc([N+](=O)[O-])c1)C(c1ccccc1)C2=O (centres undefined) ; CC50 at 120 h = > 2500 µM

Noted for CCOc1ccc2c(c1)OC(c1ccc(Cl)cc1)C(c1ccccc1)C2=O (centres undefined) : its CC50 at 120 h reads > 2500 µM

Consider now this further compound.
Short answer for COc1ccc2c(c1)OC(c1ccc(Cl)cc1)C(c1ccccc1)C2=O (centres undefined) : CC50 at 120 h was > 2500 µM
